- method_description: Intrinsic clearance in mouse liver microsomes at 1 uM in presence of NADPH incubated for 15 mins by LC/MS/MS method
- Format: ADME, Microsome
- run_parameters: read-out: CLH
endpoint_label: microsomal CLint at 1 µM

A selection of reference data follows.
CC(C)(CS(=O)(=O)c1ccc(-c2ccc(F)cc2)cc1)C(=O)N[C@H](C#N)CC(N)=O    < 3 µL/min/mg
CC(C)(CS(=O)(=O)c1ccc(-c2ccc(Cl)cc2)cc1)C(=O)N[C@H](C#N)CC(N)=O    < 3 µL/min/mg
CC(C)(CS(=O)(=O)c1ccc(-c2cccc(F)c2)cc1)C(=O)N[C@H](C#N)CC(N)=O    < 3 µL/min/mg

CC(C)(C)c1ccc(-c2ccc(S(=O)(=O)N3CCC[C@H]3C(=O)N[C@H](C#N)CC(N)=O)cc2)cc1 yielded microsomal CLint at 1 µM of 37 µL/min/mg

CC(C)(CS(=O)(=O)c1ccccc1-c1ccc2ncsc2c1)C(=O)N[C@H](C#N)CC(N)=O yielded microsomal CLint at 1 µM of 18 µL/min/mg

Cn1cc2cc(-c3ccc(S(=O)(=O)CC(C)(C)C(=O)N[C@H](C#N)CC(N)=O)cc3)ccc2n1 yielded microsomal CLint at 1 µM of 4 µL/min/mg

Cn1ccc2cc(-c3ccc(S(=O)(=O)CC(C)(C)C(=O)N[C@H](C#N)CC(N)=O)cc3)ccc21 yielded microsomal CLint at 1 µM of 19 µL/min/mg

CC(C)(CS(=O)(=O)c1ccc(-c2cncc(Cl)c2)cc1)C(=O)N[C@H](C#N)CC(N)=O yielded microsomal CLint at 1 µM of 11 µL/min/mg

---

- method_description: Half life in human liver microsomes at 1 uM in presence of NADPH incubated for 15 mins by LC/MS/MS method
- Type: ADME, Microsome
endpoint_label: half-life at 1 µM

CC(C)(CS(=O)(=O)c1ccccc1-c1ccc2ncsc2c1)C(=O)N[C@H](C#N)CC(N)=O    0.367 h
CC(C)(CS(=O)(=O)c1ccc(-c2ccc(Cl)cc2)cc1)C(=O)N[C@H](C#N)CC(N)=O    > 7.7 h
CC(C)(CS(=O)(=O)c1ccc(-c2ccc(F)cc2F)cc1)C(=O)N[C@H](C#N)CC(N)=O    > 7.7 h

CC(C)(CS(=O)(=O)c1ccc(-c2ccc(F)cc2)cc1)C(=O)N[C@H](C#N)CC(N)=O yielded half-life at 1 µM of > 7.7 h

---

- method_description: Intrinsic clearance in mouse liver microsomes at 1 uM in presence of NADPH incubated for 15 mins by LC/MS/MS method
- Type: ADME, Microsome
- run_parameters: read-out: CLH
endpoint_label: microsomal CLint at 1 µM

Cn1ncc2cccc(-c3ccc(S(=O)(=O)CC(C)(C)C(=O)N[C@H](C#N)CC(N)=O)cc3)c21    48 µL/min/mg

CC(C)(CS(=O)(=O)c1ccc(-c2ccc(F)cc2F)cc1)C(=O)N[C@H](C#N)CC(N)=O yielded microsomal CLint at 1 µM of < 3 µL/min/mg

CC(C)(CS(=O)(=O)c1ccc(-c2cncc(C(F)(F)F)c2)cc1)C(=O)N[C@H](C#N)CC(N)=O yielded microsomal CLint at 1 µM of 9 µL/min/mg

Cn1ncc2cc(-c3ccc(S(=O)(=O)CC(C)(C)C(=O)N[C@H](C#N)CC(N)=O)cc3)ccc21 yielded microsomal CLint at 1 µM of < 3 µL/min/mg

---

Form field: half-life at 1 µM (one value per entry).
- method_description: Half life in mouse liver microsomes at 1 uM in presence of NADPH incubated for 15 mins by LC/MS/MS method
- Format: ADME, Microsome

A selection of reference data follows.
CC(C)(CS(=O)(=O)c1ccc(-c2cccc(F)c2)cc1)C(=O)N[C@H](C#N)CC(N)=O    > 7.7 h
CC(C)(CS(=O)(=O)c1ccc(-c2cncc(Cl)c2)cc1)C(=O)N[C@H](C#N)CC(N)=O    2.12 h

# input for lookup
CC(C)(CS(=O)(=O)c1ccc(-c2ccc(F)cc2F)cc1)C(=O)N[C@H](C#N)CC(N)=O yielded half-life at 1 µM of > 7.7 h

---

Form field: half-life at 1 µM (one value per entry).
- method_description: Half life in human liver microsomes at 1 uM in presence of NADPH incubated for 15 mins by LC/MS/MS method
- Format: ADME, Microsome

Cn1ncc2cc(-c3ccc(S(=O)(=O)CC(C)(C)C(=O)N[C@H](C#N)CC(N)=O)cc3)ccc21 yielded half-life at 1 µM of > 7.7 h

Cn1cc2cc(-c3ccc(S(=O)(=O)CC(C)(C)C(=O)N[C@H](C#N)CC(N)=O)cc3)ccc2n1 yielded half-life at 1 µM of 2.87 h

CC(C)(CS(=O)(=O)c1ccc(-c2cccc(F)c2)cc1)C(=O)N[C@H](C#N)CC(N)=O yielded half-life at 1 µM of > 7.7 h

---

- method_description: Intrinsic clearance in human liver microsomes at 1 uM in presence of NADPH incubated for 15 mins by LC/MS/MS method
- Format: ADME, Microsome
- run_parameters: read-out: CLH
endpoint_label: microsomal CLint at 1 µM

CC(C)(CS(=O)(=O)c1ccc(-c2ccc(F)cc2)cc1)C(=O)N[C@H](C#N)CC(N)=O yielded microsomal CLint at 1 µM of < 3 µL/min/mg

Cn1ncc2cc(-c3ccc(S(=O)(=O)CC(C)(C)C(=O)N[C@H](C#N)CC(N)=O)cc3)ccc21 yielded microsomal CLint at 1 µM of < 3 µL/min/mg

---

- method_description: Half life in mouse liver microsomes at 1 uM in presence of NADPH incubated for 15 mins by LC/MS/MS method
- Type: ADME, Microsome
Form field: log10(half-life at 1 µM) (one value per entry).
Response schema: value (number) is log10 of half-life at 1 µM in units of h.

Cn1ncc2cccc(-c3ccc(S(=O)(=O)CC(C)(C)C(=O)N[C@H](C#N)CC(N)=O)cc3)c21    -0.32

Cn1ccc2cc(-c3ccc(S(=O)(=O)CC(C)(C)C(=O)N[C@H](C#N)CC(N)=O)cc3)ccc21 yielded log10(half-life at 1 µM) of 0.20

Cn1cc2cc(-c3ccc(S(=O)(=O)CC(C)(C)C(=O)N[C@H](C#N)CC(N)=O)cc3)ccc2n1 yielded log10(half-life at 1 µM) of 0.73

CC(C)(CS(=O)(=O)c1ccccc1-c1ccc2ncsc2c1)C(=O)N[C@H](C#N)CC(N)=O yielded log10(half-life at 1 µM) of 0.11

CC(C)(CS(=O)(=O)c1ccc(-c2cncc(C(F)(F)F)c2)cc1)C(=O)N[C@H](C#N)CC(N)=O yielded log10(half-life at 1 µM) of 0.43

---

- method_description: Intrinsic clearance in human liver microsomes at 1 uM in presence of NADPH incubated for 15 mins by LC/MS/MS method
- Type: ADME, Microsome
- run_parameters: read-out: CLH
endpoint_label: microsomal CLint at 1 µM (µL/min/mg)
Your answer is read as µL/min/mg, so omit the unit and give the number.

CC(C)(CS(=O)(=O)c1ccccc1-c1ccc2ncsc2c1)C(=O)N[C@H](C#N)CC(N)=O    62

# input for lookup
Cn1cc2cc(-c3ccc(S(=O)(=O)CC(C)(C)C(=O)N[C@H](C#N)CC(N)=O)cc3)ccc2n1 yielded microsomal CLint at 1 µM of 8

---

- method_description: Half life in mouse liver microsomes at 1 uM in presence of NADPH incubated for 15 mins by LC/MS/MS method
- Assay type: ADME, Microsome
Form field: half-life at 1 µM (one value per entry).

Cn1ncc2cc(-c3ccc(S(=O)(=O)CC(C)(C)C(=O)N[C@H](C#N)CC(N)=O)cc3)ccc21    > 7.7 h

CC(C)(CS(=O)(=O)c1ccc(-c2ccc(Cl)cc2)cc1)C(=O)N[C@H](C#N)CC(N)=O yielded half-life at 1 µM of > 7.7 h

CC(C)(CS(=O)(=O)c1ccc(-c2ccc(F)cc2)cc1)C(=O)N[C@H](C#N)CC(N)=O yielded half-life at 1 µM of > 7.7 h

---

Form field: microsomal CLint at 1 µM (one value per entry).
- method_description: Intrinsic clearance in human liver microsomes at 1 uM in presence of NADPH incubated for 15 mins by LC/MS/MS method
- Type: ADME, Microsome
- run_parameters: read-out: CLH

A selection of reference data follows.
CC(C)(CS(=O)(=O)c1ccc(-c2cccc(F)c2)cc1)C(=O)N[C@H](C#N)CC(N)=O    < 3 µL/min/mg
CC(C)(CS(=O)(=O)c1ccc(-c2ccc(F)cc2F)cc1)C(=O)N[C@H](C#N)CC(N)=O    < 3 µL/min/mg

# input for lookup
CC(C)(CS(=O)(=O)c1ccc(-c2ccc(Cl)cc2)cc1)C(=O)N[C@H](C#N)CC(N)=O yielded microsomal CLint at 1 µM of < 3 µL/min/mg
